Listed compounds paired with reported %Inh
system: RSK3(Kin.Dom.1-N-terminal); construct: gene RPS6KA2; details: concentration: 1 μM,replicates: in singlicate; n = 1;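 note: KINOMEscan kinase panel screen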

{"columns": ["compound", "%Inh (%)"],
 "data": [
  ["Cc1ccc(Nc2ccnc(Nc3ccc4c(c3)CS(=O)(=O)C4)n2)cc1O.Cl", 47],
  ["Cl.Cl.NC[C@H](CC1CCCCC1)NC(=O)c1ccc(-c2ccnc3[nH]ccc23)s1", 57],
  ["OCCn1cc(-c2cnc3nnn(Cc4ccc5ncccc5c4)c3n2)cn1", 0],
  ["C[C@@H]1CNc2c(sc3ccc4nc(-c5ccc(O)cc5)ccc4c23)C(=O)N1", 12],
  ["CCOC(=O)N1CCC(n2cnc(-c3ccc(F)cc3)c2-c2ccnc(N)n2)CC1", 8],
  ["C[C@@H](Oc1cc(-n2cnc3ccc(-c4ccncc4)cc32)sc1C(N)=O)c1ccccc1Cl", 39],
  ["C[C@@H](Oc1cc(-n2cnc3cc(-c4cnn(C)c4)ccc32)sc1C(N)=O)c1ccccc1Cl", 77],
  ["Cc1cccc2c(-c3ccncc3)c(-c3ccc(F)cc3)nn12.Cl", 0],
  ["N#Cc1cccc(C(=O)NC2CCN(c3ccnc(Nc4ccc(F)cc4)n3)C2)c1 (stereo not drawn)", 0],
  ["Cn1cc(-c2cccc3c(N)c(C(N)=O)nnc23)cn1", 21],
  ["CC(=O)Nc1nc2cnc(Nc3cc(NC(=O)c4cccc(CC(C)(C)C#N)c4)ccc3C)nc2s1", 0],
  ["C[C@@H]1CNc2c(sc3ccc4nc(-c5ccncc5)ccc4c23)C(=O)N1", 10],
  ["CCn1c(-c2nonc2N)nc2cncc(Br)c21", 9],
  ["Cc1ccc2c(-c3ccnc(Nc4ccc(C(F)(F)F)cc4)n3)cnn2n1", 0],
  ["O=c1[nH]cc(-c2ccc(O)cc2)c2sc(-c3ccncc3)cc12", 0],
  ["NC(=O)c1ccc(-c2cc3ncnc(SCC(=O)O)c3s2)cc1", 2],
  ["CC(C(=O)NC1CCN(c2ccnc(Nc3ccc(F)cc3)n2)C1)c1ccc(Cl)cc1 (stereo not drawn)", 0],
  ["Cn1ccc2ncnc(Oc3ccc(NC(=O)Nc4cccc(C(F)(F)F)c4)c(Cl)c3)c21", 0],
  ["O=C(Nc1cccc(Oc2ccc3nccn3n2)c1)Nc1cccc(C(F)(F)F)c1", 0],
  ["Cn1ccc2ncnc(Oc3ccc(NC(=O)Nc4ccnc(C(F)(F)F)c4)c(Cl)c3)c21", 0],
  ["COc1cc2nccc(Nc3ccc(Oc4ccccc4)cc3)c2cc1OC.Cl", 0],
  ["Cn1ccc2ncnc(Oc3ccc(NC(=O)Nc4cc(C(C)(C)C)on4)c(Cl)c3)c21", 0],
  ["O=C1NCCc2[nH]c(-c3ccncc3)cc21", 16],
  ["Cn1ccc2ncnc(Oc3ccc(NC(=O)Nc4cnn(C(C)(C)C)c4)c(Cl)c3)c21", 0],
  ["O=C(Nc1cccc(C(F)(F)F)c1)c1cccc(Oc2ccc3nccn3n2)c1", 23],
  ["Cc1ccc(C(=O)Nc2ccc(Oc3ccc4nc(NC(=O)C5CC5)cn4c3)c(F)c2)c(=O)n1-c1ccccc1", 22],
  ["Cl.Nc1n[nH]c2cc(-c3ccccn3)ccc12", 0],
  ["O=C(Nc1ccccc1)c1cccc(Oc2ccc3nccn3n2)c1", 24],
  ["COc1cccc(C2=C(Nc3cccc(Cl)c3)C(=O)NC2=O)c1", 1],
  ["FC(F)(F)c1cc(Br)cc(Nc2nccc(-c3cnn4ncccc34)n2)c1", 3],
  ["COc1cccc(OC)c1C(=O)Nc1cccc(-c2nn3ccccc3c2-c2ccnc(Nc3cccc(F)c3)n2)c1", 6],
  ["CNC(=O)c1ccccc1Nc1nc(Nc2cccc(CS(C)(=O)=O)c2)ncc1C.O=CO", 99],
  ["CN(c1cccc(CNc2nc(Nc3ccc4c(c3)CC(=O)N4)ncc2C(F)(F)F)c1)S(C)(=O)=O", 78],
  ["Nc1nccc(-c2ccc3c(N)n[nH]c3c2)n1", 31],
  ["COc1cc(Nc2nccc(N3CCC(NC(=O)c4cccc(C#N)c4)C3)n2)cc(OC)c1OC (stereo not drawn)", 4],
  ["CS(=O)(=O)Nc1ccc(-c2ccnc3[nH]ccc23)cc1", 19]
]}
